Recorded protein stability index by entry
- protocol notes: protein stability index of a GFP-peptide fusion (GPS, HEK-293T) (PSI 1-6); higher = more stable;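 also: 24-mer peptide tiles fused after GFP, lentivirally expressed, FACS-sorted into six equal bins by GFP/DsRed ratio, decoded by Illumina sequencing, PSI is the read-weighted mean bin number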
- conditions: treatment: DMSO; c terminus: a fixed tail appended
Would you mind answering with just the numeric figure?

Example cases with answers are listed next.
residue codes: KMTLTQVSTWFANARRRLKKENKM [IRX6]
observed result: 2.83
//
residue codes: YPTTLGKDRECQSQSLALKEQNNL [ZNF8]
observed result: 4.39
//
residue codes: GFFLLQLANHTGYIKVDWQRVEKD [FUNDC2]
observed result: 2.34
//
residue codes: VSSVTQVEVDENAYRCGSGMQMAE [NET1]
observed result: 4.2
//
residue codes: ALQVPRGKEDSTLQLLREENRALQ [CBY2]
observed result: 4.13
//
residue codes: KYNSARADFEQKMLDSALRFQAME [FCHO1]
observed result: 3.5

Lab note: SVDLIKTYKHINEVYYAKKKRRAQ [DYRK1B] gave protein stability index of 2.85

Lab note: FITRQLKGLEDTKSPQFNRYFYLL [PDS5B] gave protein stability index of 2.01

Lab note: HILASAPTDRNLCHFQALGCRTTH [PYCR3] gave protein stability index of 2.19

Lab note: TVGIYFGLVYRIHSVLQGFIPLFQ [TMEM40] gave protein stability index of 3.16

Lab note: PPLSDPKQAKVVARRESGGRPIKP [BRD3] gave protein stability index of 5.21

Lab note: SYSAGDSGDAAAQPAFTGIKGKEG [EPB41L3] gave protein stability index of 5.37

Lab note: CFRMQINHAIDIICGFLKERCFRG [OAS1] gave protein stability index of 2.44

Entry source: the supplement of paper PMC10567573
